# IC50 per record follows
molecular target: EGFR WT (Homo sapiens, UniProt P00533); experiment: BaF3 cell proliferation assay, EGFR WT (Table A); assay type: cell-based; conditions: potency code, 3 days, CellTiterGlo, read-out: EGFR WT (Activity for Inhibiting EGFR)
Sequence (P00533 25-1210 N540K): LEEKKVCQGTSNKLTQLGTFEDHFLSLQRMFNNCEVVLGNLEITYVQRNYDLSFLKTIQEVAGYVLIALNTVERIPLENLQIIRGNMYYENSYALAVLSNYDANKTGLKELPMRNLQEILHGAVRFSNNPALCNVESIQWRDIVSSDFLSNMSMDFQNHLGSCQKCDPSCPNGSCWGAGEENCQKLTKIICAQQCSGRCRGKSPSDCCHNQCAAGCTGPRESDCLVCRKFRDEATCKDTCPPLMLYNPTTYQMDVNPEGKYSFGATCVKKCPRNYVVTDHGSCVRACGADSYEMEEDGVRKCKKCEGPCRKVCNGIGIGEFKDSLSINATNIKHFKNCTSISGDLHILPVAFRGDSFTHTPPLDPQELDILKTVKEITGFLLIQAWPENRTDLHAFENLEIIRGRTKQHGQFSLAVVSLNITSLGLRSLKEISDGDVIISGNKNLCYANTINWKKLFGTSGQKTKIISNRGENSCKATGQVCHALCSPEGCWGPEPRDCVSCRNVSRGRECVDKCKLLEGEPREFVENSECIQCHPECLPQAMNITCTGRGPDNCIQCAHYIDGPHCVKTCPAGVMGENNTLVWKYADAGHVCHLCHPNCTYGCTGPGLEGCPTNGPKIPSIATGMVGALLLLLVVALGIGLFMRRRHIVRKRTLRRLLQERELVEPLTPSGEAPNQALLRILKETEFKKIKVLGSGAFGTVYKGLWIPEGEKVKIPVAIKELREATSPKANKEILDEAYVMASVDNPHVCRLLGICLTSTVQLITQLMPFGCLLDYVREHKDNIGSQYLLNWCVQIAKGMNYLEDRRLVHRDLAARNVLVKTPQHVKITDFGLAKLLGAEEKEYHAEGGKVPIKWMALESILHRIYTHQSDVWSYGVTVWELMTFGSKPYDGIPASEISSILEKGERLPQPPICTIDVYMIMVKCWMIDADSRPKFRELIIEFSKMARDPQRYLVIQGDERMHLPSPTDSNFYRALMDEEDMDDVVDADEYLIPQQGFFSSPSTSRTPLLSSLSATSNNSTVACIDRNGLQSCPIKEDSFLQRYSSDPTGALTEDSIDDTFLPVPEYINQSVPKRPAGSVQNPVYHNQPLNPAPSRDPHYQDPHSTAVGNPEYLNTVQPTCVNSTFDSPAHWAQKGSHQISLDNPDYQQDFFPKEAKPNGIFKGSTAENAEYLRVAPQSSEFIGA

Examples with their reported IC50 follow.
{"COMPOUND": "C=CC(=O)Nc1cc2c(Nc3ccc(OCc4cccc(C)n4)c(Cl)c3)ncnc2cc1OCCN1CCN(C)CC1 [compound 137]", "VALUE OBSERVED": "200 to 300 nM"}
{"COMPOUND": "CC#CC(=O)Nc1cc2c(Nc3ccc(OCc4cccnn4)c(Cl)c3)ncnc2cc1OCCCN1CCOCC1 [compound 165]", "VALUE OBSERVED": "100 to 200 nM"}
{"COMPOUND": "C=CC(=O)Nc1cc2c(Nc3ccc(OCc4ccccn4)c(Cl)c3)ncnc2cc1OCCN1CC2CN(C)CC2C1 (stereo not shown) [compound 77]", "VALUE OBSERVED": "100 to 200 nM"}

IC50 for EGFR WT (Homo sapiens, UniProt P00533) with input CC#CC(=O)Nc1cc2c(Nc3ccc(OCc4ccccn4)c(Cl)c3)ncnc2cc1OCCN1CCOCC1 [compound 5] equals 30 to 50 nM

----------
# pIC50 per record follows
target: HER2 YVMA (Homo sapiens, UniProt P04626, INS775YVMA); construct: expressed in transfected cells; host or cells: BaF3 (murine pro-B); assay: BaF3 cell proliferation assay, HER2 YVMA (Table B); format: cell-based; settings: potency code, 3 days, CellTiterGlo, read-out: HER2 YVMA (Activity for Inhibiting HER2)
Sequence (P04626 with tags, fused parts or gaps INS775YVMA): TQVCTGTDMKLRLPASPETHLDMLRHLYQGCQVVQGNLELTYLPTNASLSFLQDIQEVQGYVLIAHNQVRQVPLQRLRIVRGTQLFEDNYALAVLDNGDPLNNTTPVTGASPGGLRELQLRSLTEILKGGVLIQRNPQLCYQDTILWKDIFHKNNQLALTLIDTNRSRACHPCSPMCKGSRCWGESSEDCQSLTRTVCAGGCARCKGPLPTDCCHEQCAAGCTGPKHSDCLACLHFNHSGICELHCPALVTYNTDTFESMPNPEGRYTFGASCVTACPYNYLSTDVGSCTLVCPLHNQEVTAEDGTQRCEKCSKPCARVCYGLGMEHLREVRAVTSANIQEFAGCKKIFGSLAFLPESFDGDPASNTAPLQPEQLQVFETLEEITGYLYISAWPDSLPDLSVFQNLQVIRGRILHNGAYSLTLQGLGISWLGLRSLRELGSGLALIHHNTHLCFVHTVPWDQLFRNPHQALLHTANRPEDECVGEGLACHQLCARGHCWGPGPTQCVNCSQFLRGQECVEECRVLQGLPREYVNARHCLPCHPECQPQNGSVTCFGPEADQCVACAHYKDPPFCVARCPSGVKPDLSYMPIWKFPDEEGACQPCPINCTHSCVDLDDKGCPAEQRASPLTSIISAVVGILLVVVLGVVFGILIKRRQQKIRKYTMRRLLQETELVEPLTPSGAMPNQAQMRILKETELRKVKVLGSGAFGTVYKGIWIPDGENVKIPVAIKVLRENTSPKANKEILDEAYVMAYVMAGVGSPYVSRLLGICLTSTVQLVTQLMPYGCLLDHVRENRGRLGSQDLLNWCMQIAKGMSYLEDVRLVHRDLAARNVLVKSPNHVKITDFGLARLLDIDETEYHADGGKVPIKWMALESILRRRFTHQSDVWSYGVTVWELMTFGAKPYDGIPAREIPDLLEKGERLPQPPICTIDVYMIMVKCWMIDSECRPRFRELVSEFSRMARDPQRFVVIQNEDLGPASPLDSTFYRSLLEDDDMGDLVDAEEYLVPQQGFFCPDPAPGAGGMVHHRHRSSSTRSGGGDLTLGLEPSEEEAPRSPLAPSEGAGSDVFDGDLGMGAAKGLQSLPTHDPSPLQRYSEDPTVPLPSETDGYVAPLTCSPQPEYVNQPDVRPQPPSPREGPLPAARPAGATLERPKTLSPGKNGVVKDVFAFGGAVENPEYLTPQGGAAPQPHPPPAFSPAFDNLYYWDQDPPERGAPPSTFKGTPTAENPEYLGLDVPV
pIC50: −log10 of the molar value.

{"STRUCTURE SMILES STRING": "C=CC(=O)Nc1cc2c(Nc3ccc(OCc4ccccn4)c(Cl)c3)ncnc2cc1C#CC(C)(C)N1CCCC1", "pIC50": "7.30 to 7.52"}
{"STRUCTURE SMILES STRING": "C=CC(=O)Nc1cc2c(Nc3ccc(OCc4ccccn4)c(Cl)c3)ncnc2cc1C#C[C@H]1CCN(C)C1", "pIC50": "7.30 to 7.52"}
{"STRUCTURE SMILES STRING": "C=CC(=O)Nc1cc2c(Nc3ccc(OCc4ccccn4)c(Cl)c3)ncnc2cc1O[C@@H]1CCN(C)C1", "pIC50": "7.30 to 7.52"}
{"STRUCTURE SMILES STRING": "C=CC(=O)Nc1cc2c(Nc3ccc(OCc4ccccn4)c(Cl)c3)ncnc2cc1OCCCN1CCCC1", "pIC50": "7.30 to 7.52"}
{"STRUCTURE SMILES STRING": "C=CC(=O)Nc1cc2c(Nc3ccc(OCc4ccccn4)c(Cl)c3)ncnc2cc1OCCC1(N(C)C)CC1", "pIC50": "7.00 to 7.30"}

Entry under test: C=CC(=O)Nc1cc2c(Nc3ccc(OCc4cnccn4)c(Cl)c3)ncnc2cc1OCCN1CCOCC1 . Its pIC50 was 6.70 to 7.00

Entry under test: C=CC(=O)Nc1cc2c(Nc3ccc(OCc4cccnn4)c(Cl)c3)ncnc2cc1OCCN1CCN(C)CC1 . Its pIC50 was 6.30 to 6.52

Entry under test: C=CC(=O)Nc1cc2c(Nc3ccc(OCc4cccc(C)n4)c(Cl)c3)ncnc2cc1OCCN1CCOCC1 . Its pIC50 was 6.30 to 6.52

Entry under test: C=CC(=O)Nc1cc2c(Nc3ccc(OCc4ccccn4)c(Cl)c3)ncnc2cc1OCCn1ccnc1 . Its pIC50 was 6.52 to 6.70

Entry under test: C=CC(=O)Nc1cc2c(Nc3ccc(OCc4cccc(F)n4)c(Cl)c3)ncnc2cc1OCCCN1CCOCC1 . Its pIC50 was 7.00 to 7.30

Entry under test: C=CC(=O)Nc1cc2c(Nc3ccc(OCc4ccccn4)c(Cl)c3)ncnc2cc1OCCN1CCC1 . Its pIC50 was 6.70 to 7.00

Entry under test: C=CC(=O)Nc1cc2c(Nc3ccc(OCc4ccccn4)c(Cl)c3)ncnc2cc1N1CC2(CCN2C)C1 . Its pIC50 was < 6.00

Entry under test: C=CC(=O)Nc1cc2c(Nc3ccc(OCc4cccnn4)c(Cl)c3)ncnc2cc1OCCN1CC2CCC(C1)O2 . Its pIC50 was 6.52 to 6.70

----------
# IC50 per record follows
biological target: HER2 S310F (Homo sapiens, UniProt P04626, S310F); construct: expressed in transfected cells; host or cells: BaF3 (murine pro-B); assay: Activity for inhibiting HER2 (Table B), HER2 S310F; type: cell-based; conditions: read-out: HER2 S310F, potency code (IC50)
Sequence (P04626 23-1255 S310F): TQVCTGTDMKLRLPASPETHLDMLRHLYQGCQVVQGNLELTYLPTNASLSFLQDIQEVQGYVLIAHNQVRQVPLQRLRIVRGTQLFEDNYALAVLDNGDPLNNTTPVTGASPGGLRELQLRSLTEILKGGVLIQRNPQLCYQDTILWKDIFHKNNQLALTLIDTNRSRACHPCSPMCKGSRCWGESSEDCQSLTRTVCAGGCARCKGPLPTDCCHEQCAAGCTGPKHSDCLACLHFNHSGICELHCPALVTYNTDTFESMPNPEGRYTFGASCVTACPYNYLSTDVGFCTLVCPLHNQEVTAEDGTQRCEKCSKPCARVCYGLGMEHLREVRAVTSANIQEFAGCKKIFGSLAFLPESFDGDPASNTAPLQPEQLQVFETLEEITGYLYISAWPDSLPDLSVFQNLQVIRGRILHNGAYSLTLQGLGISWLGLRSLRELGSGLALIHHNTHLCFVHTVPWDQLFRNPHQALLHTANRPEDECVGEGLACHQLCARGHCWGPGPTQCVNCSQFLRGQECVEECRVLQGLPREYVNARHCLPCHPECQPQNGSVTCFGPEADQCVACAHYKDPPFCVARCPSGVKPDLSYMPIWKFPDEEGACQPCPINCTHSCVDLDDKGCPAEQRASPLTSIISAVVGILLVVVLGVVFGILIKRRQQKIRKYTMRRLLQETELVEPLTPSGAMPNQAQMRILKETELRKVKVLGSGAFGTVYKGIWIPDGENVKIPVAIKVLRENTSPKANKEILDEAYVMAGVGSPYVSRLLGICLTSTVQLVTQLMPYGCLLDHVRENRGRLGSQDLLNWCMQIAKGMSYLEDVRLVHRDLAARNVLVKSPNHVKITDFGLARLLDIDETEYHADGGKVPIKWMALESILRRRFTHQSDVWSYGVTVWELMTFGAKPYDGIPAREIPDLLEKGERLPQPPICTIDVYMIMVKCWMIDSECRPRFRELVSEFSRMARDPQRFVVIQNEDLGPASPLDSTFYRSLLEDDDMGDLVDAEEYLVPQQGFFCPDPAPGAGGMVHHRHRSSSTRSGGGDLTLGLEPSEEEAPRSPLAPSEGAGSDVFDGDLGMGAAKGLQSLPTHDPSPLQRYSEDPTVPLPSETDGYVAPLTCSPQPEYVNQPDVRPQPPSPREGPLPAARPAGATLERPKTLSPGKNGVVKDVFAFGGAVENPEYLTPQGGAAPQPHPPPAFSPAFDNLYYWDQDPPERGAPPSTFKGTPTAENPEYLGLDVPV

Entry under test: C=CC(=O)Nc1cc2c(Nc3cc(Cl)c(OCc4cccc(F)c4)cc3F)ncnc2cc1OCCCN1CC(OC)C1 [compound 131] . Its IC50 was 0.05 to 0.1 µM

Entry under test: CC#CC(=O)Nc1cc2c(Nc3ccc(OCc4ccccn4)c(Cl)c3)ncnc2cc1C#CC(C)(C)N1CCN(C)CC1 [compound 89] . Its IC50 was 0.01 to 0.02 µM

Entry under test: C=CC(=O)Nc1cc2c(Nc3ccc(Oc4ccccc4)cc3)ncnc2cc1OCCN1CCOCC1 [compound 63] . Its IC50 was 0.05 to 0.1 µM

Entry under test: C=CC(=O)Nc1cc2c(Nc3ccc(OCc4ccccn4)c(Cl)c3)ncnc2cc1OCCN1CCC(OC)CC1 [compound 114] . Its IC50 was 0.03 to 0.05 µM

Entry under test: C=CC(=O)Nc1cc2c(Nc3ccc(OCc4ccccn4)c(Cl)c3)ncnc2cc1OCCN1CCN(C)CC1 [compound 40] . Its IC50 was 0.01 to 0.02 µM

Entry under test: C=CC(=O)Nc1cc2c(Nc3ccc(OCc4cnccn4)c(Cl)c3)ncnc2cc1OCCN1CC(OC)C1 [compound 178] . Its IC50 was 0.03 to 0.05 µM

Entry under test: C=CC(=O)Nc1cc2c(Nc3ccc(OCc4ccccn4)c(Cl)c3)ncnc2cc1N(C)CCCN1CCOCC1 [compound 12] . Its IC50 was 0.1 to 0.2 µM

----------
Target: HER2 YVMA (Homo sapiens, UniProt P04626, INS775YVMA)
Construct: expressed in transfected cells; host or cells: BaF3 (murine pro-B)
Assay: Activity for inhibiting HER2 (Table B), HER2 YVMA
Format: cell-based
Settings: read-out: HER2 YVMA, potency code (IC50)
Protocol: EC50 values were determined with the same application.
pIC50: −log10 of the molar value.
RECORDED ENDPOINT: pIC50

Examples with their reported pIC50 follow.
{"STRUCTURE SMILES STRING": "C=CC(=O)Nc1cc2c(Nc3ccc(Oc4ccc(C)nc4)c(C)c3)ncnc2cc1C#CC(C)(C)N(C)C", "pIC50": "6.00 to 6.30"}
{"STRUCTURE SMILES STRING": "C=CC(=O)Nc1cc2c(Nc3ccc(OCc4cccc(F)n4)c(Cl)c3)ncnc2cc1OCCCN1CC(OC)C1", "pIC50": "7.30 to 7.52"}
{"STRUCTURE SMILES STRING": "C=CC(=O)Nc1cc2c(Nc3ccc(OCc4cccc(C)n4)c(Cl)c3)ncnc2cc1OCCCN1CCOCC1", "pIC50": "6.70 to 7.00"}
{"STRUCTURE SMILES STRING": "C=C(F)C(=O)Nc1cc2c(Nc3ccc(OCc4ccccn4)c(Cl)c3)ncnc2cc1OCCN1CCOCC1", "pIC50": "7.00 to 7.30"}
{"STRUCTURE SMILES STRING": "C=CC(=O)Nc1cc2c(Nc3ccc(OCc4ccccn4)c(Cl)c3)ncnc2cc1OCCN1CC2(CN(C)C2)C1", "pIC50": "6.70 to 7.00"}

Entry under test: C=CC(=O)Nc1cc2c(Nc3ccc(OCc4ccccn4)c(Cl)c3)ncnc2cc1O[C@H]1CCN(C)C1 . Its pIC50 was 7.00 to 7.30

Entry under test: C=CC(=O)Nc1cc2c(Nc3ccc(OCc4cnccn4)c(Cl)c3)ncnc2cc1OCCN1CCN(C)CC1 . Its pIC50 was 6.70 to 7.00

----------
target: EGFR V3 (Homo sapiens, UniProt P00533, DELINS30-297G); construct: expressed in transfected cells; host or cells: BaF3 (murine pro-B), retroviral pMXs-IRES-Blasticidin; assay: BaF3 cell proliferation assay, EGFR V3 (Table A); format: cell-based; details: potency code, 3 days, CellTiterGlo, read-out: EGFR V3 (Activity for Inhibiting EGFR)
Sequence (P00533 with tags, fused parts or gaps DELINS30-297G): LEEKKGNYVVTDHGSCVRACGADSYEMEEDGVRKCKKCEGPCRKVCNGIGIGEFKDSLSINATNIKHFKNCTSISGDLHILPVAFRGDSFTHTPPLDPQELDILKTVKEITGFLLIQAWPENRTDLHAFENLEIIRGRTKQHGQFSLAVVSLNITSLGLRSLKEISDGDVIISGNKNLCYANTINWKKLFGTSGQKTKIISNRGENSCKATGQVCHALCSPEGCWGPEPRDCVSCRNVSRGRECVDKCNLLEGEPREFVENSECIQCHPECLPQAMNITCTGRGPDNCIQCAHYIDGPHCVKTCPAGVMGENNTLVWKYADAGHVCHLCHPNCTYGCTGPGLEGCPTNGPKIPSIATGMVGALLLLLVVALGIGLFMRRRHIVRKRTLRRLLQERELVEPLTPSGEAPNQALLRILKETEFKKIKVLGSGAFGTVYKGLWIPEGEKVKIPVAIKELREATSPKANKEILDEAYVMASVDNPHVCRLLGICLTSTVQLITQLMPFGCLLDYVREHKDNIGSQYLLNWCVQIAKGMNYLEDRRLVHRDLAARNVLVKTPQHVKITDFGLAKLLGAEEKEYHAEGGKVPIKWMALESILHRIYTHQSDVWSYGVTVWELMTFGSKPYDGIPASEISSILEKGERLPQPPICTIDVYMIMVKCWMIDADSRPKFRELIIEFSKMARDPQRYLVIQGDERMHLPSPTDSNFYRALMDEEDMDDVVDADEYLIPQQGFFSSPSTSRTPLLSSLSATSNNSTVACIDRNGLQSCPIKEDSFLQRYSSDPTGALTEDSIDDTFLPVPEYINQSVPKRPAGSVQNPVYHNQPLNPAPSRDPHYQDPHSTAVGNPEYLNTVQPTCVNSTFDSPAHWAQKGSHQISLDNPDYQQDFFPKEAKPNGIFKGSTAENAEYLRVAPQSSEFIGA
# IC50 per record follows

Examples with their reported IC50 follow.
{"MOLECULE": "C=CC(=O)Nc1cc2c(Nc3ccc(OCc4ccccn4)nc3)ncnc2cc1OCCN1CCOCC1", "IC50": "50 to 100 nM"}
{"MOLECULE": "C=CC(=O)Nc1cc2c(Nc3ccc(OCc4ccccn4)cc3F)ncnc2cc1OCCN1CCOCC1", "IC50": "20 to 30 nM"}
{"MOLECULE": "C=CC(=O)Nc1cc2c(Nc3ccc(OCc4ccccn4)c(Cl)c3)ncnc2cc1OCCN1CCC(N(C)C)CC1", "IC50": "50 to 100 nM"}
{"MOLECULE": "CC#CC(=O)Nc1cc2c(Nc3cc(Cl)c(OCc4cccc(F)c4)cc3F)ncnc2cc1OCCCN1CCOCC1", "IC50": "50 to 100 nM"}
{"MOLECULE": "C=CC(=O)Nc1cc2c(Nc3ccc(OCc4cccc(C)n4)c(Cl)c3)ncnc2cc1OCCN1CC(OC)C1", "IC50": "50 to 100 nM"}
{"MOLECULE": "C=CC(=O)Nc1cc2c(Nc3ccc(OCc4ccccn4)c(Cl)c3)ncnc2cc1C#CC(C)(C)NC", "IC50": "30 to 50 nM"}

Entry under test: C=CC(=O)Nc1cc2c(Nc3cc(Cl)c(OCc4cccc(F)c4)cc3F)ncnc2cc1OCCN1CC(OC)C1 . Its IC50 was 50 to 100 nM

Entry under test: C=CC(=O)Nc1cc2c(Nc3ccc(OCc4cccc(OC(F)(F)F)n4)c(Cl)c3)ncnc2cc1OCCN1CCOCC1 . Its IC50 was 200 to 300 nM

Entry under test: C=CC(=O)Nc1cc2c(Nc3cc(Cl)c(OCc4cccc(F)c4)cc3F)ncnc2cc1O[C@@H]1CCN(C)C1 . Its IC50 was 100 to 200 nM

Entry under test: C=CC(=O)Nc1cc2c(Nc3ccc(OCc4ccccn4)cn3)ncnc2cc1OC1CCN(C)C1 (stereo not drawn) . Its IC50 was 300 to 500 nM

Entry under test: C=CC(=O)Nc1cc2c(Nc3ccc(OCc4ccccn4)c(Cl)c3)ncnc2cc1OCC[C@H]1CCCN1C . Its IC50 was 20 to 30 nM

Entry under test: C=CC(=O)Nc1cc2c(Nc3ccc(OCc4ccccn4)c(Cl)c3)ncnc2cc1OCCC1COCCN1C (stereo not drawn) . Its IC50 was 30 to 50 nM

Entry under test: C=CC(=O)Nc1cc2c(Nc3ccc(OCc4ccccn4)c(Cl)c3)ncnc2cc1N1CCN2CCC1C2 (stereo not drawn) . Its IC50 was 100 to 200 nM

Entry under test: C=CC(=O)Nc1cc2c(Nc3ccc(OCc4cnccn4)c(Cl)c3)ncnc2cc1OCCN1CC2CCC(C1)O2 . Its IC50 was 30 to 50 nM

Entry under test: C=CC(=O)Nc1cc2c(Nc3ccc(OCc4ccccn4)c(Cl)c3)ncnc2cc1N1CCN(C)CC1 . Its IC50 was 50 to 100 nM

Entry under test: C=CC(=O)Nc1cc2c(Nc3ccc(OCc4cccc(F)n4)c(Cl)c3)ncnc2cc1OCCN1CCN(C)CC1 . Its IC50 was 30 to 50 nM

Entry under test: C=CC(=O)Nc1cc2c(Nc3ccc(OCc4cccc(F)c4)c(Cl)c3)ncnc2cc1OCCN1CCN(C)CC1 . Its IC50 was 100 to 200 nM

Entry under test: C=CC(=O)Nc1cc2c(Nc3ccc(OCc4ccccn4)c(Cl)c3)ncnc2cc1OC1CN(C)C1 . Its IC50 was 200 to 300 nM

Entry under test: C=CC(=O)Nc1cc2c(Nc3ccc(OCc4cccc(F)c4)c(Cl)c3)ncnc2cc1N(C)CCN1CCOCC1 . Its IC50 was 50 to 100 nM

Entry under test: C=CC(=O)Nc1cc2c(Nc3ccc(OCc4cnccn4)c(Cl)c3)ncnc2cc1OCCN1CCOCC1 . Its IC50 was 30 to 50 nM

Entry under test: CC#CC(=O)Nc1cc2c(Nc3cc(Cl)c(OCc4cccc(F)c4)cc3F)ncnc2cc1OCCN1CCOCC1 . Its IC50 was 50 to 100 nM
